Cited source: ChEMBL document CHEMBL3137667

test-conditions: human, serum
Consider the following compounds; for each one, report its Hepatotoxicity (moderate).
Reply with the value as a number alone.

# query: Hepatotoxicity (moderate) of entry CO[C@@H]1[C@@H](OC(N)=O)[C@@H](O)[C@H](Oc2ccc3c(O)c(NC(=O)c4ccc(O)c(CC=C(C)C)c4)c(=O)oc3c2C)OC1(C)C
2

Can you handle CN(C)[C@@H]1C(O)=C(C(N)=O)C(=O)[C@@]2(O)C(O)=C3C(=O)c4c(O)cccc4[C@@](C)(O)[C@H]3[C@H](O)[C@@H]12 next?
1

Can you handle CC(=O)OCC(CCn1cnc2cnc(N)nc21)COC(C)=O next?
0

Can you handle O=c1n(CC2CO2)c(=O)n(CC2CO2)n1CC1CO1 (centres undefined) next?
1

Can you handle O=[N+]([O-])O[C@H]1CO[C@H]2[C@@H]1OC[C@H]2O[N+](=O)[O-] [ISOSORBIDE DINITRATE] next?
1

Can you handle CCC(C(=O)NC(N)=O)c1ccccc1 (centres undefined) [PHENETURIDE] next?
1

Can you handle CCCC(=O)O[C@H]1[C@H](C)O[C@@H](O[C@H]2[C@H](N(C)C)[C@@H](O)[C@H](O[C@H]3[C@@H](CC=O)C[C@@H](C)[C@@H](O)/C=C/C=C/C[C@@H](C)OC(=O)C[C@@H](O)[C@@H]3OC)O[C@@H]2C)C[C@@]1(C)OC(=O)CC next?
4

Can you handle C#C[C@]1(O)CC[C@H]2[C@@H]3CCC4=CCCC[C@@H]4[C@H]3CC[C@@]21C next?
0

Can you handle CO[C@@H]1[C@@H](N)[C@@H](O[C@H]2[C@H](Oc3cccc4c(O)c5c(=O)oc6ccc(C)c7c(=O)oc(c34)c5c67)O[C@H](C)[C@H](O)[C@]2(C)O)O[C@H](C)[C@@H]1O next?
4

Can you handle CC(C)(C)NCC(O)c1cc(O)cc(O)c1 (centres undefined) next?
0

Can you handle CO/N=C(\C(=O)N[C@@H]1C(=O)N2C(C(=O)O)=CCS[C@H]12)c1csc(N)n1 next?
32

Can you handle O=C(O)C1N=C(c2ccccc2)c2cc(Cl)ccc2NC1=O (centres undefined) [CLORAZEPIC ACID] next?
0

Can you handle CN(N=O)C(=O)N[C@@H](C=O)[C@@H](O)[C@H](O)[C@H](O)CO next?
9

Can you handle CN1C(CSCC(F)(F)F)Nc2cc(Cl)c(S(N)(=O)=O)cc2S1(=O)=O (centres undefined) [POLYTHIAZIDE] next?
0

====

test-conditions: human
Consider the following substances; for each one, report its Hepatotoxicity (cirrhosis).
Reply with the value as a number alone.

# query: Hepatotoxicity (cirrhosis) of entry INFLIXIMAB
0

Can you handle PEGASPARGASE next?
0

Can you handle MEGLUMINE ANTIMONATE next?
0

Can you handle CHOLESTYRAMINE next?
0

Can you handle UROKINASE next?
0

Can you handle NYSTATIN next?
0

Can you handle PEGVISOMANT next?
0

Can you handle INTERFERON BETA next?
0

Can you handle BLEOMYCIN next?
0

Can you handle NADROPARIN CALCIUM next?
0

Can you handle IVERMECTIN next?
0

Can you handle GEMTUZUMAB OZOGAMICIN next?
0

Can you handle REVIPARIN SODIUM next?
0

Can you handle INTERFERON ALFA-N1 next?
0

Can you handle COLISTIN next?
0

Can you handle BCG VACCINE next?
0

Can you handle FILGRASTIM next?
0

Can you handle CARBETIMER next?
0

Can you handle POLOXAMER next?
0
